For each entry below, report its total cell number value.
System: jimpy (Plp1 jimpy) mouse iPSC-derived oligodendrocyte progenitor cells
Measurement protocol: total cell number (DAPI+ nuclei) relative to DMSO vehicle control (SDs above negative control mean); higher = more surviving cells
Conditions used: 10 µM; 3 days
Structures can show the parent of a compound that is named as a salt. In all, about 2,600 compounds were measured (“total cell number (DAPI+ nuclei) relative to DMSO vehicle control”: median about -1.4, lowest 2% from about -23 on). The entries come from a sample that favours the lowest values as a whole.
When you answer, write just the number.

Sure, the documented total cell number for `Cc1cc(/C=C/C#N)cc(C)c1Nc1ccnc(Nc2ccc(C#N)cc2)n1` is -9.09

Sure, the documented total cell number for `CS(=O)(=O)N1CCN(Cc2cc3nc(-c4cccc5[nH]ncc45)nc(N4CCOCC4)c3s2)CC1` is -23.7

Sure, the documented total cell number for `COc1ccc(-c2nc(N3CCOCC3)c3sc(CN(C)c4ncc(C(=O)NO)cn4)cc3n2)cn1` is -10.4

Sure, the documented total cell number for `CN(C)Cc1cccc(N/C(=C2\C(=O)Nc3cc(C(N)=O)ccc32)c2ccccc2)c1` is -14.3

Sure, the documented total cell number for `CC(C)NC[C@@H](C(=O)N1CCN(c2ncnc3c2[C@H](C)C[C@H]3O)CC1)c1ccc(Cl)cc1` is -8.76

Sure, the documented total cell number for `CCS(=O)(=O)Nc1ccc2c(c1)/C(=C(/Nc1ccc(CN3CCCCC3)cc1)c1ccccc1)C(=O)N2` is -17.7

Sure, the documented total cell number for `Oc1ccccc1O` is -10.2

Sure, the documented total cell number for `C[C@@H]1O[C@@H](OC[C@H]2O[C@@H](Oc3c(-c4ccc(O)c(O)c4)oc4cc(O)cc(O)c4c3=O)[C@H](O)[C@@H](O)[C@@H]2O)[C@H](O)[C@H](O)[C@H]1O` is -0.749

Sure, the documented total cell number for CC(C)c1cc(-c2n[nH]c(=O)n2-c2ccc3c(ccn3C)c2)c(O)cc1O [Ganetespib (STA-9090)] is -25.4

Sure, the documented total cell number for `CNC(=O)c1ccccc1Nc1nc(Nc2ccc(N3CCOCC3)cc2OC)ncc1Cl` is -12.2

Sure, the documented total cell number for O=C1CCC(N2C(=O)c3ccccc3C2=O)C(=O)N1 (racemic) [(±)-Thalidomide] is -2.18

Sure, the documented total cell number for CNC(=O)CN(CCN(CCN(CC(=O)[O-])CC(=O)NC)CC(=O)[O-])CC(=O)[O-].[Gd+3] [Gadodiamide] is -14.9

Sure, the documented total cell number for `C[C@H](c1ccc(F)cc1CCCC(=O)O)N(c1cc(F)ccc1F)S(=O)(=O)c1ccc(Cl)cc1` is -4.06

Sure, the documented total cell number for `CNC(=O)c1cc(Oc2ccc(NC(=O)Nc3ccc(Cl)c(C(F)(F)F)c3)c(F)c2)ccn1` is 0.684

Sure, the documented total cell number for COCC[n+]1c2c(n(Cc3cnccn3)c1C)C(=O)c1ccccc1C2=O [YM155 (Sepantronium Bromide)] is -27.7

Sure, the documented total cell number for COc1cc(C(O)C(=O)O)ccc1O (racemic) [(±)-Vanillylmandelic acid] is -0.443

Sure, the documented total cell number for `COc1cccc(C(=O)NCCN2CCN(c3ccc(Cl)cc3)CC2)c1` is -2.1

Sure, the documented total cell number for CO[C@H]1/C=C\C=C(/C)C(=O)NC2=CC(=O)C(NCCN(C)C)=C(C[C@@H](C)C[C@H](OC)[C@H](O)[C@@H](C)/C=C(\C)[C@@H]1OC(N)=O)C2=O [17-DMAG (Alvespimycin) HCl] is -26.5

Sure, the documented total cell number for `O=C(NC1CCOCC1)c1ccc(-c2cc(-c3c[nH]nc3-c3ccccn3)ccn2)cc1` is -0.803

Sure, the documented total cell number for `C=CCn1c(=O)c2cnc(Nc3ccc(N4CCN(C)CC4)cc3)nc2n1-c1cccc(C(C)(C)O)n1` is -14.6

Sure, the documented total cell number for `CNC(=O)c1ccc2cc([C@@]3(O)CCn4cncc43)ccc2c1` is 0.9

Sure, the documented total cell number for O=S(=O)(O)Oc1ccc(C(c2ccc(OS(=O)(=O)O)cc2)c2ccccn2)cc1 [Sodium Picosulfate] is 0.486

Sure, the documented total cell number for `C=CC(=O)N1CCC[C@@H](n2nc(-c3ccc(Oc4ccccc4)cc3)c3c(N)ncnc32)C1` is -8.95

Sure, the documented total cell number for `Cc1cc(Nc2ncc(Cl)c(Nc3ccccc3S(=O)(=O)C(C)C)n2)c(OC(C)C)cc1C1CCNCC1` is -16.3

Sure, the documented total cell number for `Cc1c(CN2CCN(C(=O)[C@H](C)O)CC2)sc2c(N3CCOCC3)nc(-c3cnc(N)nc3)nc12` is -11.4

Sure, the documented total cell number for `C=CC(=O)Nc1cccc(Nc2nc(Nc3ccc(N4CCN(C(C)=O)CC4)cc3OC)ncc2C(F)(F)F)c1` is -15.5

Sure, the documented total cell number for `C=CCNC1=C2C[C@@H](C)C[C@H](OC)[C@H](O)[C@@H](C)/C=C(\C)[C@H](OC(N)=O)[C@@H](OC)/C=C\C=C(/C)C(=O)NC(=CC1=O)C2=O` is -25

Sure, the documented total cell number for `NC[C@@H]1O[C@H](c2ccccc2)Cc2c1ccc(O)c2O` is -2.54

Sure, the documented total cell number for `CC(=O)C(C)=O` is -1.17

Sure, the documented total cell number for `C=CC(=O)Nc1cccc(Oc2nc(Nc3ccc(N4CCN(C)CC4)cc3OC)ncc2Cl)c1` is -24.9

Sure, the documented total cell number for `C=CC(=O)Nc1cccc(Sc2nc(Nc3ccc(N4CCN(C)CC4)cc3)ncc2Cl)c1` is -26.9

Sure, the documented total cell number for Cc1ccc2c(c1)C(=O)C1(O)CCN(c3ccccc3)C1=N2 (single isomer, unassigned; (-)) [(-)-Blebbistatin] is -14.8
